experiment: PK of compound of Formula (Ia) after single subcutaneous dose of solution formulations in Wistar Han rats; type: in vivo; conditions: male, Wistar Han, rat, plasma, sc, 50 mg/kg, mean ± SD, n = 3 rats; SC 50 mg/kg; solution R, 400 mg/mL; read-out: AUC0-6048h
measurement.name: AUC(0-t) (µM·h)
Give a bare numeral; the unit µM·h is implied.

get_value(item= `CC(C)(C#Cc1ccc(-c2ccc(Cl)c3c(NS(C)(=O)=O)nn(CC(F)(F)F)c23)c([C@H](Cc2cc(F)cc(F)c2)NC(=O)Cn2nc(C(F)(F)F)c3c2C(F)(F)[C@@H]2C[C@H]32)n1)S(C)(=O)=O` , readout=AUC(0-t)) returns 988

* * *

assay: PK of compound of Formula (Ia) after single subcutaneous dose of solution formulations in Wistar Han rats; assay type: in vivo; details: male, Wistar Han, rat, plasma, sc, 50 mg/kg, mean ± SD, n = 3 rats; SC 50 mg/kg; solution R, 400 mg/mL; read-out: AUC0-3024h
measurement.name: AUC(0-t) (µM·h)
Give a bare numeral; the unit µM·h is implied.

get_value(item= `CC(C)(C#Cc1ccc(-c2ccc(Cl)c3c(NS(C)(=O)=O)nn(CC(F)(F)F)c23)c([C@H](Cc2cc(F)cc(F)c2)NC(=O)Cn2nc(C(F)(F)F)c3c2C(F)(F)[C@@H]2C[C@H]32)n1)S(C)(=O)=O` , readout=AUC(0-t)) returns 752

* * *

assay: PK of compound of Formula (Ia) after single subcutaneous dose of solution formulations in beagle dogs; assay type: in vivo; details: male, beagle, dog, plasma, sc, 12 mg/kg, beagle dogs, SC 12 mg/kg, 400 mg/mL solution AA (6.25% poloxamer 188), 3360 h, Mean n = 3
measurement.name: concentration at 3360 h (nM)
Give a bare numeral; the unit nM is implied.

get_value(item= `CC(C)(C#Cc1ccc(-c2ccc(Cl)c3c(NS(C)(=O)=O)nn(CC(F)(F)F)c23)c([C@H](Cc2cc(F)cc(F)c2)NC(=O)Cn2nc(C(F)(F)F)c3c2C(F)(F)[C@@H]2C[C@H]32)n1)S(C)(=O)=O` , readout=concentration at 3360 h) returns 1.97

* * *

experiment: PK of compound of Formula (Ia) after single subcutaneous dose of solution formulations in beagle dogs; type: in vivo; conditions: male, beagle, dog, plasma, sc, 12 mg/kg, 336 h; mean, n = 3 dogs; SC 12 mg/kg; solution U, 500 mg/mL
measurement.name: concentration at 336 h (nM)
Give a bare numeral; the unit nM is implied.

get_value(item= CC(C)(C#Cc1ccc(-c2ccc(Cl)c3c(NS(C)(=O)=O)nn(CC(F)(F)F)c23)c([C@H](Cc2cc(F)cc(F)c2)NC(=O)Cn2nc(C(F)(F)F)c3c2C(F)(F)[C@@H]2C[C@H]32)n1)S(C)(=O)=O [compound of Formula (Ia)] , readout=concentration at 336 h) returns 152

* * *

assay: PK of compound of Formula (Ia) after single subcutaneous dose of solution formulations in beagle dogs; type: in vivo; conditions: male, beagle, dog, plasma, sc, 6 mg/kg, 2352 h; mean, n = 3 dogs; SC 6 mg/kg; solution V, 300 mg/mL
measurement.name: concentration at 2352 h (nM)
Give a bare numeral; the unit nM is implied.

get_value(item= `CC(C)(C#Cc1ccc(-c2ccc(Cl)c3c(NS(C)(=O)=O)nn(CC(F)(F)F)c23)c([C@H](Cc2cc(F)cc(F)c2)NC(=O)Cn2nc(C(F)(F)F)c3c2C(F)(F)[C@@H]2C[C@H]32)n1)S(C)(=O)=O` , readout=concentration at 2352 h) returns 4.7

* * *

experiment: PK of compound of Formula (Ia) after single subcutaneous dose of solution formulations in Wistar Han rats; assay type: in vivo; settings: male, Wistar Han, rat, plasma, sc, 50 mg/kg, Wistar Han rats, SC 50 mg/kg, 400 mg/mL solution Y (water, PEG 300), 336 h, Mean n = 4
measurement.name: concentration at 336 h
Could you kindly put the unit after your number?

get_value(item= `CC(C)(C#Cc1ccc(-c2ccc(Cl)c3c(NS(C)(=O)=O)nn(CC(F)(F)F)c23)c([C@H](Cc2cc(F)cc(F)c2)NC(=O)Cn2nc(C(F)(F)F)c3c2C(F)(F)[C@@H]2C[C@H]32)n1)S(C)(=O)=O` , readout=concentration at 336 h) returns 103 nM

* * *

Assay: PK of compound of Formula (Ia) after single subcutaneous dose of solution formulations in Wistar Han rats
Format: in vivo
Details: male, Wistar Han, rat, plasma, sc, 50 mg/kg, mean ± SD, n = 3 rats; SC 50 mg/kg; solution V, 300 mg/mL; read-out: AUC0-1008 h
Experimental: Formulations containing the compound of Formula (Ia), or a pharmaceutically acceptable salt thereof, were prepared as solutions and optionally administered subcutaneously or intramuscularly to rats, rabbits, and/or dogs. A solution of about 400 mg/mL of the compound of Formula (Ia) having 19.14 w/w % water, 40.66 w/w % PEG 300, 35.20 w/w % of a sodium salt of a compound of Formula (Ia), and 5.00% ethanol was prepared. […]
measurement.name: AUC(0-t) (µM·h)
Give a bare numeral; the unit µM·h is implied.

get_value(item= `CC(C)(C#Cc1ccc(-c2ccc(Cl)c3c(NS(C)(=O)=O)nn(CC(F)(F)F)c23)c([C@H](Cc2cc(F)cc(F)c2)NC(=O)Cn2nc(C(F)(F)F)c3c2C(F)(F)[C@@H]2C[C@H]32)n1)S(C)(=O)=O` , readout=AUC(0-t)) returns 237

* * *

experiment: PK of compound of Formula (Ia) after single intramuscular dose of solution formulations in Wistar Han rats; type: in vivo; details: male, Wistar Han, rat, plasma, im, 100 mg/kg, Solution H (~400 mg/mL; Na salt, water, PEG 300); single IM 100 mg/kg; male Wistar Han rats; mean ± SD, n = 4; read-out: AUC0-24h
measurement.name: AUC(0-t) (µM·h)
Give a bare numeral; the unit µM·h is implied.

get_value(item= CC(C)(C#Cc1ccc(-c2ccc(Cl)c3c(NS(C)(=O)=O)nn(CC(F)(F)F)c23)c([C@H](Cc2cc(F)cc(F)c2)NC(=O)Cn2nc(C(F)(F)F)c3c2C(F)(F)[C@@H]2C[C@H]32)n1)S(C)(=O)=O [compound of Formula (Ia)] , readout=AUC(0-t)) returns 7.59

* * *

assay: PK of compound of Formula (Ia) after single subcutaneous dose of solution formulations in beagle dogs; type: in vivo; settings: male, beagle, dog, plasma, sc, 12 mg/kg, beagle dogs, SC 12 mg/kg, 400 mg/mL solution Y (water, PEG 300), 3360 h, Mean n = 3
measurement.name: concentration at 3360 h (nM)
Give a bare numeral; the unit nM is implied.

get_value(item= CC(C)(C#Cc1ccc(-c2ccc(Cl)c3c(NS(C)(=O)=O)nn(CC(F)(F)F)c23)c([C@H](Cc2cc(F)cc(F)c2)NC(=O)Cn2nc(C(F)(F)F)c3c2C(F)(F)[C@@H]2C[C@H]32)n1)S(C)(=O)=O [compound of Formula (Ia)] , readout=concentration at 3360 h) returns 5.11

* * *

assay: PK of compound of Formula (Ia) after single subcutaneous dose of solution formulations in Wistar Han rats; assay type: in vivo; details: male, Wistar Han, rat, plasma, sc, 50 mg/kg, Wistar Han rats, SC 50 mg/kg, 400 mg/mL solution W (5.00% ethanol, 1.57% poloxamer 188), 48.0 h, Mean n = 3
measurement.name: concentration at 48 h
Could you kindly put the unit after your number?

get_value(item= `CC(C)(C#Cc1ccc(-c2ccc(Cl)c3c(NS(C)(=O)=O)nn(CC(F)(F)F)c23)c([C@H](Cc2cc(F)cc(F)c2)NC(=O)Cn2nc(C(F)(F)F)c3c2C(F)(F)[C@@H]2C[C@H]32)n1)S(C)(=O)=O` , readout=concentration at 48 h) returns 152 nM

* * *

assay: PK of compound of Formula (Ia) after single subcutaneous dose of solution formulations in beagle dogs; assay type: in vivo; conditions: male, beagle, dog, plasma, sc, 6 mg/kg, 168 h; mean, n = 3 dogs; SC 6 mg/kg; solution V, 300 mg/mL
measurement.name: concentration at 168 h
Could you kindly put the unit after your number?

get_value(item= CC(C)(C#Cc1ccc(-c2ccc(Cl)c3c(NS(C)(=O)=O)nn(CC(F)(F)F)c23)c([C@H](Cc2cc(F)cc(F)c2)NC(=O)Cn2nc(C(F)(F)F)c3c2C(F)(F)[C@@H]2C[C@H]32)n1)S(C)(=O)=O [compound of Formula (Ia)] , readout=concentration at 168 h) returns 39.2 nM

* * *

test: PK of compound of Formula (Ia) after single subcutaneous dose of solution formulations in Wistar Han rats; format: in vivo; conditions: male, Wistar Han, rat, plasma, sc, 50 mg/kg, Wistar Han rats, SC 50 mg/kg, 400 mg/mL solution Z (3.13% poloxamer 188), 1680 h, animals #1-#4
measurement.name: concentration at 1680 h (nM)
Give a bare numeral; the unit nM is implied.

get_value(item= CC(C)(C#Cc1ccc(-c2ccc(Cl)c3c(NS(C)(=O)=O)nn(CC(F)(F)F)c23)c([C@H](Cc2cc(F)cc(F)c2)NC(=O)Cn2nc(C(F)(F)F)c3c2C(F)(F)[C@@H]2C[C@H]32)n1)S(C)(=O)=O [compound of Formula (Ia)] , readout=concentration at 1680 h) returns 108

Origin of the recorded values: patent US11807625B2
